This listing pairs sequences with measured melting temperature.
System: HeLa Kyoto
Experiment: melting temperature (median over replicates), in situ; higher = more thermally stable
Conditions: cell cycle stage: mitosis
# value in °C; strip the unit string

// worked examples, melting temperature included
| biopolymer_sequence | unit_tag | data_value |
| --- | --- | --- |
| MANNDAVLKRLEQKGAEADQIIEYLKQQVSLLKEKAILQATLREEKKLRVENAKLKKEIEELKQELIQAEIQNGVKQIPFPSGTPLHANSMVSENVIQSTAVTTVSSGTKEQIKGGTGDEKKAKEKIEKKGEKKEKKQQSIAGSADSKPIDVSRLDLRIGCIITARKHPDADSLYVEEVDVGEIAPRTVVSGLVNHVPLEQMQNRMVILLCNLKPAKMRGVLSQAMVMCASSPEKIEILAPPNGSVPGDRITFDAFPGEPDKELNPKKKIWEQIQPDLHTNDECVATYKGVPFEVKGKGVCRAQTMSNSGIK [AIMP1] | °C | 49.1 |
| MSAYPKSYNPFDDDGEDEGARPAPWRDARDLPDGPDAPADRQQYLRQEVLRRAEATAASTSRSLALMYESEKVGVASSEELARQRGVLERTEKMVDKMDQDLKISQKHINSIKSVFGGLVNYFKSKPVETPPEQNGTLTSQPNNRLKEAISTSKEQEAKYQASHPNLRKLDDTDPVPRGAGSAMSTDAYPKNPHLRAYHQKIDSNLDELSMGLGRLKDIALGMQTEIEEQDDILDRLTTKVDKLDVNIKSTERKVRQL [SNAP29] | °C | 52.7 |

melting temperature in this record for MTMDGDSSTTDASQLGISADYIGGSHYVIQPHDDTEDSMNDHEDTNGSKESFREQDIYLPIANVARIMKNAIPQTGKIAKDAKECVQECVSEFISFITSEASERCHQEKRKTINGEDILFAMSTLGFDSYVEPLKLYLQKFREAMKGEKGIGGAVTATDGLSEELTEEAFTNQLPAGLITTDGQQQNVMVYTTSYQQISGVQQIQFS [NFYB] : 54.5

melting temperature in this record for MFLVNSFLKGGGGGGGGGGGLGGGLGNVLGGLISGAGGGGGGGGGGGGGGGGGGGGTAMRILGGVISAISEAAAQYNPEPPPPRTHYSNIEANESEEVRQFRRLFAQLAGDDMEVSATELMNILNKVVTRHPDLKTDGFGIDTCRSMVAVMDSDTTGKLGFEEFKYLWNNIKRWQAIYKQFDTDRSGTICSSELPGAFEAAGFHLNEHLYNMIIRRYSDESGNMDFDNFISCLVRLDAMFRAFKSLDKDGTGQIQVNIQEWLQLTMYS [CAPNS1] : 55

melting temperature in this record for MASAGDTQAGPRDAADQNFDYMFKLLLIGNSSVGKTSFLFRYADDSFTPAFVSTVGIDFKVKTVYRHDKRIKLQIWDTAGQERYRTITTAYYRGAMGFLLMYDIANQESFAAVQDWATQIKTYSWDNAQVILVGNKCDLEDERVVPAEDGRRLADDLGFEFFEASAKENINVKQVFERLVDVICEKMNESLEPSSSSGSNGKGPAVGDAPAPQPSSCSC [RAB3D] : 57.6

melting temperature in this record for MAGMVDFQDEEQVKSFLENMEVECNYHCYHEKDPDGCYRLVDYLEGIRKNFDEAAKVLKFNCEENQHSDSCYKLGAYYVTGKGGLTQDLKAAARCFLMACEKPGKKSIAACHNVGLLAHDGQVNEDGQPDLGKARDYYTRACDGGYTSSCFNLSAMFLQGAPGFPKDMDLACKYSMKACDLGHIWACANASRMYKLGDGVDKDEAKAEVLKNRAQQLHKEQQKGVQPLTFG [COA7] : 52.7

====

This listing pairs sequences with measured melting temperature.
Tested on: HeLa Kyoto
Experiment: melting temperature (median over replicates), in situ; higher = more thermally stable
Conditions: cell cycle stage: mitosis
# value in °C; strip the unit string

| biopolymer_sequence | unit_tag | melting temperature |
| --- | --- | --- |
| MEELLRRELGCSSVRATGHSGGGCISQGRSYDTDQGRVFVKVNPKAEARRMFEGEMASLTAILKTNTVKVPKPIKVLDAPGGGSVLVMEHMDMRHLSSHAAKLGAQLADLHLDNKKLGEMRLKEAGTVGRGGGQEERPFVARFGFDVVTCCGYLPQVNDWQEDWVVFYARQRIQPQMDMVEKESGDREALQLWSALQLKIPDLFRDLEIIPALLHGDLWGGNVAEDSSGPVIFDPASFYGHSEYELAIAGMFGGFSSSFYSAYHGKIPKAPGFEKRLQLYQLFHYLNHWNHFGSGYRGSSLNIMRNLVK [FN3KRP] | °C | 58.3 |

melting temperature in this record for MSFVAYEELIKEGDTAILSLGHGAMVAVRVQRGAQTQTRHGVLRHSVDLIGRPFGSKVTCGRGGWVYVLHPTPELWTLNLPHRTQILYSTDIALITMMLELRPGSVVCESGTGSGSVSHAIIRTIAPTGHLHTVEFHQQRAEKAREEFQEHRVGRWVTVRTQDVCRSGFGVSHVADAVFLDIPSPWEAVGHAWDALKVEGGRFCSFSPCIEQVQRTCQALAARGFSELSTLEVLPQVYNVRTVSLPPPDLGTGTDGPAGSDTSPFRSGTPMKEAVGHTGYLTFATKTPG [TRMT61A] : 57.5

====

This listing pairs sequences with measured melting temperature.
Test system: HeLa Kyoto;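 also: HeLa Kyoto cells synchronized by double thymidine or nocodazole block, proteins quantified by TMT10plex mass spectrometry, three independent biological replicates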
Test: melting temperature (median over replicates), in situ; higher = more thermally stable
Details: cell cycle stage: mitosis
# value in °C; strip the unit string

| biopolymer_sequence | unit_tag | melting temperature |
| --- | --- | --- |
| MSQSKGKKRNPGLKIPKEAFEQPQTSSTPPRDLDSKACISIGNQNFEVKADDLEPIMELGRGAYGVVEKMRHVPSGQIMAVKRIRATVNSQEQKRLLMDLDISMRTVDCPFTVTFYGALFREGDVWICMELMDTSLDKFYKQVIDKGQTIPEDILGKIAVSIVKALEHLHSKLSVIHRDVKPSNVLINALGQVKMCDFGISGYLVDSVAKTIDAGCKPYMAPERINPELNQKGYSVKSDIWSLGITMIELAILRFPYDSWGTPFQQLKQVVEEPSPQLPADKFSAEFVDFTSQCLKKNSKERPTYPELMQHPFFTLHESKGTDVASFVKLILGD [MAP2K6] | °C | 52.5 |
| MAETYDFLFKFLVIGSAGTGKSCLLHQFIENKFKQDSNHTIGVEFGSRVVNVGGKTVKLQIWDTAGQERFRSVTRSYYRGAAGALLVYDITSRETYNSLAAWLTDARTLASPNIVVILCGNKKDLDPEREVTFLEASRFAQENELMFLETSALTGENVEEAFLKCARTILNKIDSGELDPERMGSGIQYGDASLRQLRQPRSAQAVAPQPCGC [RAB4B] | °C | 57.9 |
| MALNGAEVDDFSWEPPTEAETKVLQARRERQDRISRLMGDYLLRGYRMLGETCADCGTILLQDKQRKIYCVACQELDSDVDKDNPALNAQAALSQAREHQLASASELPLGSRPAPQPPVPRPEHCEGAAAGLKAAQGPPAPAVPPNTDVMACTQTALLQKLTWASAELGSSTSLETSIQLCGLIRACAEALRSLQQLQH [SSSCA1] | °C | 53.5 |
| MLRREARLRREYLYRKAREEAQRSAQERKERLRRALEENRLIPTELRREALALQGSLEFDDAGGEGVTSHVDDEYRWAGVEDPKVMITTSRDPSSRLKMFAKELKLVFPGAQRMNRGRHEVGALVRACKANGVTDLLVVHEHRGTPVGLIVSHLPFGPTAYFTLCNVVMRHDIPDLGTMSEAKPHLITHGFSSRLGKRVSDILRYLFPVPKDDSHRVITFANQDDYISFRHHVYKKTDHRNVELTEVGPRFELKLYMIRLGTLEQEATADVEWRWHPYTNTARKRVFLSTE [IMP4] | °C | 51.4 |
| MKRQGASSERKRARIPSGKAGAANGFLMEVCVDSVESAVNAERGGADRIELCSGLSEGGTTPSMGVLQVVKQSVQIPVFVMIRPRGGDFLYSDREIEVMKADIRLAKLYGADGLVFGALTEDGHIDKELCMSLMAICRPLPVTFHRAFDMVHDPMAALETLLTLGFERVLTSGCDSSALEGLPLIKRLIEQAKGRIVVMPGGGITDRNLQRILEGSGATEFHCSARSTRDSGMKFRNSSVAMGASLSCSEYSLKVTDVTKVRTLNAIAKNILV [CUTC] | °C | 54.1 |

Moving on to another sequence below.
melting temperature in this record for MDGETAEEQGGPVPPPVAPGGPGLGGAPGGRREPKKYAVTDDYQLSKQVLGLGVNGKVLECFHRRTGQKCALKLLYDSPKARQEVDHHWQASGGPHIVCILDVYENMHHGKRCLLIIMECMEGGELFSRIQERGDQAFTEREAAEIMRDIGTAIQFLHSHNIAHRDVKPENLLYTSKEKDAVLKLTDFGFAKETTQNALQTPCYTPYYVAPEVLGPEKYDKSCDMWSLGVIMYILLCGFPPFYSNTGQAISPGMKRRIRLGQYGFPNPEWSEVSEDAKQLIRLLLKTDPTERLTITQFMNHPWINQSMVVPQTPLHTARVLQEDKDHWDEVKEEMTSALATMRVDYDQVKIKDLKTSNNRLLNKRRKKQAGSSSASQGCNNQ [MAPKAPK3] : 51.2
